test: RP, Waters ACQUITY Premier BEH C18, 100 × 2.1 mm, 1.7 µm, 40 °C, 0.3 to 0.4 mL/min, estimated dead time 0.73 min; A: water + 0.1% formic acid; B: acetonitrile + 0.1% formic acid; gradient (min/%B) 0/0.5 0.1/0.5 10/80 10.1/99.5 12/0.5 12.1/0.5 14.5/0.5; settings: stereoisomer not certain
The entries below are paired with their reported LC retention time.

Study these solved cases before continuing.
compound="CC(O)CC(=O)O (configuration not stated) [3-HYDROXYBUTANOATE]" endpoint_value="4.45 min"
compound="CC1OC(OCC2OC(Oc3cc(O)c4c(c3)OC(c3ccc(O)cc3)CC4=O)C(O)C(O)C2O)C(O)C(O)C1O (configuration not stated) [NARIRUTIN]" endpoint_value="4.59 min"
compound="CCCC(=O)O [BUTANOATE]" endpoint_value="3.99 min"

Field LC retention time (entry O=C(O)C1CCC(O)CC1 (configuration not stated) [4-HYDROXYCYCLOHEXYLCARBOXYLIC ACID] ) reads 4.05 min

Looking up O=C(O)CCCCc1ccccc1 [5-PHENYLVALERIC ACID] , I found its LC retention time recorded as 7.21 min

# LC retention time (compound: O=C(O)CCCC(=O)O [GLUTARATE] ) is 3.5 min

Given item CC(CCC(=O)NCCS(=O)(=O)O)C1CCC2C3C(O)CC4CC(O)CCC4(C)C3CC(O)C12C (configuration not stated) [TAUROCHOLIC ACID] , the value recorded as its LC retention time is 5.85 min

get_value(item= O=c1oc2cc(O)ccc2c2oc3cc(O)ccc3c12 [COUMESTEROL] , readout=LC retention time) returns 6.04 min

Just so you know, measured LC retention time for COc1ccc(-c2oc3cc(OC)c(OC)c(O)c3c(=O)c2OC)cc1O [CASTICIN] came out at 6.98 min

Lookup result for CC1OC(OC2C(Oc3cc(O)c4c(c3)OC(c3ccc(O)cc3)CC4=O)OC(CO)C(O)C2O)C(O)C(O)C1O (configuration not stated) [NARINGIN] ; measured LC retention time: 4.7 min

Summary for this compound, Nc1ccccc1O [2-AMINOPHENOL] : LC retention time is 1.62 min
